molecular target: Tyrosine-protein phosphatase non-receptor type 5 (Homo sapiens); experiment: STEP phosphatase inhibitors, primary screen, biochemical, fluorescence intensity, uHTS (AID 588621); conditions: recombinant STEP, OMFP fluorogenic substrate, at 20 µM, active compounds read high;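 note: 0% = DMSO with enzyme and substrate and 100% = substrate only without enzyme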
The campaign covered roughly 360,000 compounds. About 890 (0.25%) were called active. The list comes from a sample in which actives are over-represented; it also holds close analogues and randomly drawn compounds.
readout_label: inhibition (%)
Numbers only here, please. The scale is %.

Here are 2 compounds together with their reported answers.
### Prompt If you can, please state the reported inhibition value of Cc1noc(C)c1CCC(=O)N1CCCC(CO)(Cc2ccccc2)C1 (stereo unspecified) .
### Response -1.7

### Prompt One more compound: Cc1nc2ccc(NC(=S)N3CCC(C)CC3)cc2nc1C
### Response 2.1

---
### Prompt Bench note: what inhibition did Cc1nnsc1C(=O)NCc1c(F)cccc1Cl show?
### Response -0.5

### Prompt Another compound to look at: CCNC(=S)N1CCN(c2ncccn2)CC1
### Response -5.9

### Prompt Item: Cc1c(NC(=O)C(=O)N/N=C/c2cccs2)c(=O)n(-c2ccccc2)n1C
### Response 3.9

### Prompt // same read-out, input: CCc1c(C)sc(NC(=O)OC)c1C(=O)N1CCOCC1
### Response 10.1

Values from PubChem BioAssay AID588621
